- Tested on: Plasmodium falciparum
- EXPERIMENTAL PROTOCOL: GSK_TCMDC: Inhibition of Plasmodium falciparum 3D7 in whole erythrocytes, using parasite LDH activity as an index of growth.
- Assay type: functional, organism-based
- CONDITION: Plasmodium falciparum, 3D7
Binning of XC50 into classes: low-valued: < 400 nM; mid-valued: ≥ 400 nM and < 800 nM; high-valued: ≥ 800 nM

# COMPOUND, CAT
measured = [
    ("CN1CCC(Oc2cc(CN3CC[C@H](NC(=O)c4ccc(Cl)c(Cl)c4)C3)ccc2I)C1 (stereo partly specified)", "high-valued"),
    ("CCC(C)(C)C1CCc2nc(N)nc(N)c2C1 (stereo unspecified)", "low-valued"),
    ("CS(=O)(=O)N(c1ccccc1)c1cc(C(=O)N[C@@H](Cc2ccccc2)[C@H](O)CNC2CC2)cc(N2CCCC2=O)c1", "low-valued"),
    ("Cc1ccc(C)c(CN2CCC(CNC(=O)c3cc4ccc5cccnc5c4[nH]3)CC2)c1", "high-valued"),
    ("CCc1cc(CNC2CCN(CCc3c(F)cnc4ccc(OC)nc34)CC2)cc2c1OCCO2", "low-valued"),
    ("O=C(Nc1ccc(CN2CCN(S(=O)(=O)c3cccc(Cl)c3)CC2)cc1)c1cccs1", "high-valued"),
    ("Oc1cccc(Nc2nc(NCc3ccco3)c3ccccc3n2)c1", "mid-valued"),
    ("N#Cc1cccc(C(=O)Nc2cccc(-c3ccc(CN4CCCC4)cc3)c2)c1", "mid-valued"),
    ("Cc1[nH]c(C)c(-c2ccc(OCc3cc(F)cc(F)c3)nc2)c(=O)c1Br", "low-valued"),
    ("COc1ccc2ccccc2c1CNCC1CCN(CC2CCCCC2)CC1", "mid-valued"),
    ("O=C(N[C@H]1CCN(CCc2ccc(O[C@H]3CCNC3)cc2)C1)c1ccc(Cl)c(Cl)c1", "high-valued"),
    ("CCN(CC)CCCNC(=O)/C(=C/C=C/c1cc2cc(Cl)c(Cl)cc2[nH]1)OC", "high-valued"),
    ("CCOc1cc(C(=O)NC2CC(C)(C)NC(C)(C)C2)ccc1-c1cc2cc(Cl)c(Cl)cc2[nH]1", "mid-valued"),
    ("COc1ccc(-c2cccc(NC(=O)c3cccc(Cl)c3)c2)cc1CNC(C)C", "mid-valued"),
]

====

- Test system: Plasmodium falciparum
- EXPERIMENTAL PROTOCOL: GSK_TCMDC: Inhibition of Plasmodium falciparum 3D7 in whole erythrocytes, using parasite LDH activity as an index of growth.
- Format: functional, organism-based
- CONDITION: Plasmodium falciparum, 3D7
Field 'label' (enum: Yes / No). Set to Yes when XC50 is strictly under 700 nM; else No.

# COMPOUND, CAT
measured = [
    ("NC1CCN(c2nc(NCCCc3ccc(O)cc3)nc(NCc3cccc4ccccc34)n2)CC1", "No"),
    ("O=C(NC1CCCCC1)N(Cc1ccccc1-c1ccc(CNCCc2ccccc2)cc1)C1CCN(Cc2ccccc2)CC1", "No"),
    ("Cc1cccc(-c2ccc(NC(=O)C3CCN(Cc4cccc(O)c4)CC3)cc2)c1", "No"),
    ("CN1C(=O)C(=O)N(CCCCCONC(=N)N)C1=S", "Yes"),
    ("COc1ccc2ncc(F)c(NC(=O)C3CCC(NCc4cc5cc(F)cc(F)c5[nH]4)CC3)c2n1 (configuration not stated)", "No"),
    ("COc1cc(OC)c(OC)cc1C=NN=c1cc(C)[nH]c2ccccc12", "Yes"),
    ("O=C(Nc1cccc(C(F)(F)F)c1)c1cccc(S(=O)(=O)NCC2CCN(CC3CCCCC3)CC2)c1", "No"),
]

====

Reported XC50 by item:
- System: Plasmodium falciparum
- EXPERIMENTAL PROTOCOL: GSK_TCMDC: Inhibition of Plasmodium falciparum 3D7 in whole erythrocytes, using parasite LDH activity as an index of growth.
- Type: functional, organism-based
- CONDITION: Plasmodium falciparum, 3D7
OBSERVABLE: XC50 (nM)

# COMPOUND, SYSTEM, UNIT, VAL
measured = [
    ("Cc1csc(-c2ccc3[nH]cc(C4=CCN(C)CC4)c3c2)n1", "Plasmodium falciparum", "nM", 754),
    ("Cc1[nH]c(C)c(-c2ccc(-c3ccccc3F)nc2)c(=O)c1Cl", "Plasmodium falciparum", "nM", 250),
    ("COc1cc2nc(-c3ccccc3)nc(N3CCN(CC(=O)N4CCCC4)CC3)c2cc1OC", "Plasmodium falciparum", "nM", 1130),
    ("Cc1c(CNCCCNc2cc(=O)c3ccccc3[nH]2)sc(C(F)F)c1Br", "Plasmodium falciparum", "nM", 867),
    ("Cc1n[nH]c2cc(F)c(-c3cc(OC[C@@H](N)Cc4ccccc4)cnc3-c3ccoc3)cc12", "Plasmodium falciparum", "nM", 1040),
    ("Cc1nc2ccccn2c1C1(O)C(=O)Nc2c(Cl)cc(Cl)cc21 (stereo not given)", "Plasmodium falciparum", "nM", 1590),
    ("Cc1ccc(C(=O)Cn2nc(-c3ccc(C)c(S(=O)(=O)N4CCCC4)c3)ccc2=O)cc1", "Plasmodium falciparum", "nM", 513),
    ("COCCN1CCN(Cc2ccc(-c3ccc(-c4nc5cc(F)ccc5[nH]4)cc3)cc2)CC1", "Plasmodium falciparum", "nM", 717),
    ("c1cc(OCCN2CCCC2)ccc1CNC1CCN(CC2CCCCC2)CC1", "Plasmodium falciparum", "nM", 845),
    ("CN(C)c1ccc(CN2CCC(NC(=O)c3ccc(-c4cccc(F)c4)s3)CC2)cc1", "Plasmodium falciparum", "nM", 1490),
]

====

Reported XC50 by item:
- Tested on: Plasmodium falciparum
- EXPERIMENTAL PROTOCOL: GSK_TCMDC: Inhibition of Plasmodium falciparum 3D7 in whole erythrocytes, using parasite LDH activity as an index of growth.
- Format: functional, organism-based
- CONDITION: Plasmodium falciparum, 3D7
OBSERVABLE: XC50 (µM)

# COMPOUND, OBSERVABLE, VAL
data = [
    ("Cc1sc(N2CCN(C)CC2)nc1C(=O)Nc1ccc(F)cc1C(F)(F)F", "XC50", 1.07),
    ("O=C(c1ccc(F)c(F)c1)N1CCOC(CCN2CCC(c3ccccc3)CC2)(c2ccc(Cl)c(Cl)c2)C1 (stereo not drawn)", "XC50", 1.04),
    ("CN1CC=C(c2c[nH]c3ccc(-c4ccccc4)cc23)CC1", "XC50", 0.775),
]

====

- Test system: Plasmodium falciparum
- EXPERIMENTAL PROTOCOL: GSK_TCMDC: Inhibition of Plasmodium falciparum 3D7 in whole erythrocytes, using parasite LDH activity as an index of growth.
- Assay type: functional, organism-based
- CONDITION: Plasmodium falciparum, 3D7

# COMPOUND, XC50
data = [
    ("c1ccc(-c2ccc3c(Nc4ccc5[nH]ccc5c4)ccnc3c2)nc1", "943 nM"),
    ("COc1ccc(CNC(=O)c2cnc3c(O)cccc3c2Nc2cccc(NC(=O)c3ccc(F)cc3)c2)cc1", "996 nM"),
    ("Oc1c(CN2CCCC(C(F)(F)F)C2)cc(Cl)c2ccccc12 (stereo not given)", "1570 nM"),
    ("CN(CCCCCN1CCC(NC(=O)Nc2ccc(Oc3ccccc3)cc2)C1)C(=O)/C=C/c1ccc(Cl)c(Cl)c1 (stereo not given)", "421 nM"),
    ("O=C(/C=C/c1ccc(Cl)c(Cl)c1)NCCCCCN1CCC(c2c[nH]c3ccccc23)C(O)C1 (stereo not given)", "795 nM"),
    ("O=C(Cn1c(=O)oc2ccccc21)N1CCC(n2c(=O)n(CCCN3CCOCC3)c3ccccc32)CC1", "774 nM"),
    ("COc1ccc2[nH]c(C(=O)Nc3cccc(-c4ccc(CN(C)C)cc4)c3)cc2c1", "908 nM"),
    ("O=C(Nc1ccc(F)c(Cl)c1)c1cc([N+](=O)[O-])cc2cn[nH]c12", "315 nM"),
    ("Cc1[nH]c(C)c(-c2ccc(-c3ccc(C#N)cc3)nc2)c(=O)c1Br", "981 nM"),
    ("CC(C)C[C@H](Nc1ccnc(NCC2CCCCC2)n1)C(=O)Nc1ccccc1", "1430 nM"),
]

====

- Tested on: Plasmodium falciparum
- EXPERIMENTAL PROTOCOL: GSK_TCMDC: Inhibition of Plasmodium falciparum 3D7 in whole erythrocytes, using parasite LDH activity as an index of growth.
- Format: functional, organism-based
- CONDITION: Plasmodium falciparum, 3D7

# SMILES REPR, XC50
records = [
    ("Cn1c(NCc2cc(F)cc3c2OCOC3)nc2cc(Nc3ccnc(Nc4cccc(CS(C)(=O)=O)c4)n3)ccc21", "149 nM"),
    ("N=C(N)NN=Cc1ccc2c(ccc3ccccc32)c1", "634 nM"),
    ("Cc1nc2ccc3ccc(CNc4ccc(C(=O)N[C@@H](CCC(=O)O)C(=O)N[C@@H](Cc5cccs5)C(=O)O)c(F)c4)cc3c2c(=O)[nH]1", "787 nM"),
    ("O=C(Nc1cccc(-c2ccc(-c3nc4ccccc4[nH]3)cc2)c1)c1cccnc1", "1040 nM"),
    ("Cc1ccc2nc3sc(C(=O)NCCCN4CCC(N5CCCCC5)CC4)cc3cc2c1", "675 nM"),
]
